Source of measurements: PubChem BioAssay (NCI)

System: SK-MEL-5 melanoma
Experiment: NCI-60 one-dose screen, 48 h
Conditions: 10 µM unless noted
Compounds without any hit were thinned out: in the full panel of roughly 83,000, 20% have a hit. The source made the active and inactive calls. Rule for the calls: active = growth percent below 10; inactive = the rest.
Pick from active, inactive when you respond.

Recorded test outcome, item CN1CCN(Cc2ccc(NC(=O)c3cncc(C#Cc4cnc5ccc(NCCO)nn45)c3)cc2C(F)(F)F)CC1 active

Recorded test outcome, item Cc1ccccc1NC(=O)Nc1nc2ccc([N+](=O)[O-])cc2s1 active

Recorded test outcome, item CC(C)NC(=O)c1cc(-c2ccc(NC(=O)Nc3ccc(F)cc3)cc2)nc2cccnc12 inactive

Recorded test outcome, item CN1CCN(c2ccc(Nc3nc(NCCCNS(=O)(=O)c4cccc(F)c4)c4sccc4n3)cc2)CC1 active

Recorded test outcome, item O=c1oc2ccc(-c3ccc(F)cc3F)cc2c(=O)n1-c1ccc(Br)cc1F inactive

Recorded test outcome, item COc1cc(/C=C2/C(=O)Nc3ccc(Cl)cc32)ccc1OCc1ccc(Cl)cc1 inactive

Recorded test outcome, item COC(=O)c1cccc(NC2=C(Cl)C(=O)c3nc(C)ccc3C2=O)c1 inactive

Recorded test outcome, item Cc1cc(Br)ccc1-n1cc(C#N)c(N)c1C(=O)c1ccc(Br)cc1 inactive

Recorded test outcome, item Oc1[nH]c2ccc(Cl)cc2c1N=Nc1nc(N=Nc2c(O)[nH]c3ccc(Cl)cc23)nc(N2CCOCC2)n1 inactive

Recorded test outcome, item O=C(/C=C/c1ccccc1)c1cccc(O)c1 inactive

Recorded test outcome, item CCOP(=O)(OCC)OC[C@]12CCC(C)(C)CC1C1=CC[C@@H]3[C@@]4(C)CCCNC(C)(C)[C@@H]4CC[C@@]3(C)[C@]1(C)CC2 (stereo partly drawn) inactive

Recorded test outcome, item CCCCc1nc2c(N)nc3ccccc3c2n1Cc1cccc(CN)c1 inactive

Recorded test outcome, item Clc1ccc(CSc2nnc(-c3ccc(Cl)cc3)n2-c2ccccc2)cc1 inactive

Recorded test outcome, item CCCNNC(=O)c1ccc(-c2ccc(NC(=O)CCCCCCC(=O)N[C@H](C(=O)N3C[C@H](O)C[C@H]3C(=O)N[C@@H](C)c3ccc(-c4scnc4C)cc3)C(C)(C)C)cc2)cc1 active

Recorded test outcome, item CCCC/C(=C\c1ccc(O)c(O)c1)C(=O)NC(Cc1ccccc1)C(=O)C(=O)NCCc1ccc(OC)cc1 (stereo not drawn) inactive

Recorded test outcome, item Cc1ccc(OCc2occc2C(=O)N2CCOCC2)cc1 inactive

Recorded test outcome, item CCC1=Cc2c(OC)cccc2OC12C=Cc1c(OC)cccc1O2 (stereo not drawn) inactive

Recorded test outcome, item CN1CCN(c2ccc(Nc3nc(NCCNS(=O)(=O)c4ccccc4)c4sccc4n3)cc2)CC1 inactive

Recorded test outcome, item O=C(CSc1nc2ccccc2c(=O)n1-c1ccc(Cl)c(Cl)c1)Nc1ccc(S(=O)(=O)Nc2ccc(Cl)nn2)cc1 inactive

Recorded test outcome, item CCOC(=O)Nc1ccc2c(ccn2C(=O)c2cccc(F)c2)c1 inactive

Recorded test outcome, item COc1ccc(-c2cc(-c3ccc(N4CCOCC4)cc3)n3c(n2)nc2ccccc23)cc1OC inactive

Recorded test outcome, item COc1ccc(/C=N/NC(=O)c2c(N)nn(C)c2Nc2ccccc2)cc1Oc1ccccc1 inactive

Recorded test outcome, item Fc1ccc(-c2cn3c(-c4c[nH]c5ccc(Br)cc45)csc3n2)cc1 inactive

Recorded test outcome, item N#C/C(=C\c1ccc(-c2ccc(Cl)cc2)o1)C(=O)Nc1ncc(Cc2ccc(Br)cc2)s1 inactive

Recorded test outcome, item CN(C)S(=O)(=O)c1ccc(-c2nc(C(Cl)Cl)nc3cc(-c4ccccc4)nn23)cc1 inactive

Recorded test outcome, item CCCCCC[n+]1ccc(SCC(=O)n2ccc3ccccc32)c2ccccc21 inactive

Recorded test outcome, item C#CCN(C)CCCOc1ccc(NC(=O)CCCCCCC(=O)NO)cc1Cl active

Recorded test outcome, item CCCCCCOC(=O)c1cc(-c2ccc(F)cc2)nc2ccccc12 inactive

Recorded test outcome, item CN1CCN(Cc2ccc(NC(=O)c3cncc(C#Cc4cnc5ccc(N6CCOCC6)nn45)c3)cc2C(F)(F)F)CC1 active

Recorded test outcome, item Cc1cc(=O)[nH]c(O)c1C#N inactive

Recorded test outcome, item CC(Nc1ncnc2ccc(-c3cnc4cnccn34)cc12)c1ccccc1 (stereo not drawn) inactive

Recorded test outcome, item Nn1c(=O)n(-c2cccc(C(F)(F)F)c2)c(=O)c2cc(-c3ccc(F)cc3F)ccc21 active

Recorded test outcome, item Cn1cc(-c2nn3cc(-c4ccncc4)nc3s2)c2cc(Br)ccc21 inactive

Recorded test outcome, item COC(=O)[C@@H](Cc1c[nH]c2ccccc12)NC(=O)CCCCOc1cc(O)c2c(=O)cc(-c3ccccc3)oc2c1 active

Recorded test outcome, item NS(=O)(=O)c1ccc(Nc2nc(Nc3ccccc3)nc(N3N=C(c4ccc(Cl)cc4)CC3c3ccc(Cl)cc3)n2)cc1 (stereo not drawn) inactive

Recorded test outcome, item Nc1ncc(-c2ccc3ncnc(NCc4ccccc4)c3c2)cn1 inactive

Recorded test outcome, item CC1=C(C)C(=O)C(Nc2ccc3c(c2)OCCO3)=C(Br)C1=O inactive

Recorded test outcome, item Cc1[nH]c(C(=O)Nc2ccc(C(=O)NCC3CCNCC3)cc2OC(C)C)c(Cl)c1Cl inactive
